# TGI values compiled below
Test system: NCI-H226 lung
Assay: NCI tumour cell line growth inhibition, 48 h

Worked examples, 8 compounds total:
compound="COC1CCC2C(NS(=O)(=O)c3ccc(C)cc3)CCCC2O1 (stereo not given) (tested in a mixture with another compound)" result="> 34.5 µM"
compound=C=C(C1=CC(=O)C(C)(C)O1)[C@@H]1CC=C([C@@H]2CC[C@H]3[C@@]2(C)CC[C@H]2C(C)(C)C(=O)[C@H](O)C[C@]32C)[C@H](O)O1 result="40.3 µM"
compound=CCc1ccc(CCN2CCCCC2)nc1 result="> 100 µM"
compound=Cc1ccc2c(=O)cc(-c3ccc(F)cc3)[nH]c2n1 result="> 100 µM"
compound="Nc1ccccc1SC(C[N+](=O)[O-])c1ccc2c(c1)OCO2 (stereo not given)" result="32.4 µM"
compound="O=C(CC1(O)C(=O)Nc2c(Cl)cc(Cl)cc21)c1ccc(Br)cc1Br (stereo not given)" result="34.8 µM"
compound=COc1c(C)c(C/C=C(\C)CCCCO[Si](c2ccccc2)(c2ccccc2)C(C)(C)C)c(OC)c(OC)c1OC result="> 100 µM"
compound="O=C1OCC(O)=C1C(c1ccc(Cl)cc1)c1cc2c(cc1O)OCO2 (stereo not given)" result="> 100 µM"

[ask] Query the reported TGI for NCI-H226 lung; item: N#CN=C(N(Cc1ccccc1)Cc1ccccc1)N(Cc1ccccc1)Cc1ccccc1
[reply] > 100 µM

[ask] Record O=C1C(=Cc2ccc(O)cc2)N=C(c2ccccc2)N1n1c(-c2ccccc2)nc2ccccc2c1=O : what is its TGI with NCI-H226 lung?
[reply] > 100 µM

###

System: OVCAR-3 ovarian
Assay: NCI tumour cell line growth inhibition, 48 h
measured parameter: TGI

Example results:
molecule=Cc1cc(O)c2c(=O)c3ccccc3[nH]c2c1 result="> 100 µM"
molecule=CCCN=C1CCN(Cc2ccccc2)c2ccccc2N1 result="> 100 µM"
molecule=CN/N=C(/Cc1occc(=O)c1O)C(=O)Nc1ccccc1C result="> 100 µM"

[ask] Any idea what TGI was measured for COc1ccc(C(=O)Cn2c(C(=O)c3ccccc3)nc(-c3ccc(OC)cc3)c2-c2ccc(OC)cc2)cc1 ?
[reply] > 100 µM

[ask] Name the recorded TGI for CC(C)CCC[C@@H](C)[C@H]1CC[C@H]2[C@@H]3CC=C4C[C@@H](C(C(=O)O)C(=O)O)CC[C@]4(C)[C@H]3CC[C@]12C .
[reply] 0.298 µM

[ask] What TGI value was documented for this molecule, CC(=O)Nc1ccc(-c2nnc(SCC(=O)Nc3ccc([N+](=O)[O-])cc3)o2)cc1 ?
[reply] 28.1 µM

[ask] Fill in the blank: the reported TGI of COc1ccccc1C12OC(=O)C1(C)Oc1ccccc1C2=O (stereo unspecified) is ____.
[reply] > 100 µM

[ask] What does the record list as TGI for CNS(=O)(=O)NNS(=O)(=O)c1ccc2ccccc2c1 ?
[reply] > 100 µM

[ask] Look up TGI: CCOC(=O)C1=C(C)NC(=S)NC1c1ccccc1 (stereo unspecified)
[reply] > 100 µM

[ask] Reported TGI for CC[C@@]1(O)C[C@H](OC2CC(N(C)C)C(O)C(C)O2)c2c(O)c3c(c(O)c2[C@H]1OC1CC(N(C)C)C(O)C(C)O1)C(=O)c1cccc(O)c1C3=O (stereo partly specified) : what is it?
[reply] < 0.01 µM

[ask] Fill blank: measured TGI of the molecule O=C1OCC(O)=C1C(c1ccc(Cl)cc1)c1cc2c(cc1O)OCO2 (stereo unspecified) is ____.
[reply] > 100 µM

[ask] Tell me the measured TGI of Brc1ccc(N=c2nc3ccccn3n3nc(-c4ccccc4)cc23)cc1 , please.
[reply] 72.1 µM

[ask] // returns reported TGI for input C=C(CN1CCN(c2ccc(Cl)cc2F)CC1)c1ccc(C(=O)Nc2ccccc2N)cc1
[reply] > 100 µM

###

System: A498 renal
Experiment: NCI tumour cell line growth inhibition, 48 h
measured parameter: GI50

molecule="O=C(/C=C/C12c3ccccc3C(c3ccccc31)C1C(=O)NC(=O)C12)c1ccncc1 (stereo not given)" result="14.1 µM"

[ask] For NC(=O)c1cccc2cn(-c3ccc([C@@H]4CCCNC4)cc3)nc12 , what is its reported GI50?
[reply] 19.2 µM

[ask] Which GI50 value is on record for Cn1cc(C2=C(c3cn(C)c4ncccc34)C(=O)NC2=O)c2ccccc21 ?
[reply] 3.73 µM

[ask] Item under review: COc1ccc2c(c1)/C(=C/c1c(C)nc3sc(C)nn13)C(=O)N2 . Reported GI50?
[reply] 3.07 µM

[ask] Looking for the measured GI50 of O=C1/C(=C/c2cccc([N+](=O)[O-])c2)COc2ccc(O)cc21 , can you help?
[reply] 3.35 µM

[ask] Item Cc1ccc(NC2=C(Cl)C(=O)N(Cc3ccccc3)C2=O)cc1O has what recorded GI50?
[reply] 7.18 µM

[ask] # input molecule: O=C(Nc1ccccc1OC(F)(F)F)Nc1n[nH]c2ccccc12 ; wanted: its GI50
[reply] > 100 µM

[ask] Dear colleague, I am looking for the recorded GI50 of the following molecule: C=C(CN1CCN(c2ccc(Cl)cc2F)CC1)c1ccc(C(=O)Nc2ccccc2N)cc1
[reply] 3.03 µM

[ask] For the molecule shown here, Cc1nc2ccccc2c(N)c1-c1cc(C)c2c(C)nc3ccccc3c2n1 , give the reported GI50.
[reply] 1.73 µM

[ask] # input molecule: NC(=O)c1sc(-n2cnc3ccccc32)cc1OCc1ccccc1Br ; wanted: its GI50
[reply] 4.11 µM

[ask] Need GI50, item COc1cc(Cc2cnc(/N=C3\C(=O)N(CN4CCN(c5c(F)cc6c(=O)c(C(=O)O)cn(C7CC7)c6c5OC)CC4C)c4ccc(F)cc43)nc2N)cc(OC)c1OC (stereo not given)
[reply] 26 µM

###

Test system: UACC-62 melanoma
Assay: NCI tumour cell line growth inhibition, 48 h
measured parameter: GI50

Worked cases, answers included:
molecule=O=C1/C(=C/c2cccc([N+](=O)[O-])c2)COc2ccc(O)cc21 result="1920 nM"
molecule=Cc1ccc(C(=O)/C(=C/c2ccc([N+](=O)[O-])cc2)SCc2ccc(Cl)cc2)cc1 result="1340 nM"
molecule="CCCCOC(=O)C1OC(O[C@H]2CCC3(C)C(CCC4(C)C3CC=C3C5CC(C)(C)CCC5(C(=O)O)CC[C@]34C)C2(C)C)C(OC2OC(CO)C(O)C(O)C2O)C(OC2OC(CO)C(O)C(O)C2O)C1O (some centres undefined)" result="20900 nM"
molecule=Cc1nc2ccccc2c(N)c1-c1cc(C)c2c(C)nc3ccccc3c2n1 result="1290 nM"
molecule=COc1cc(/C=N/NC(=O)c2ccc(C(F)(F)F)nc2Nc2ccc(Cl)cc2C)ccc1O result="1880 nM"

[ask] Recorded GI50 of CCCCCN(CCCCC)CCCNc1c2c(nc3ccc(Cl)cc13)CCCC2 , please.
[reply] 4360 nM

[ask] Need GI50, item OCc1ccc(N2CCC2c2ccc(F)cc2)cc1Cl (centres undefined)
[reply] 397 nM

[ask] I would be grateful if you could share the reported GI50 for Cn1cc(C2=C(c3cn(C)c4ncccc34)C(=O)NC2=O)c2ccccc21 .
[reply] 11700 nM

[ask] // query GI50 value for entry COc1cc(-c2nn(-c3ccc(NC(=O)c4ccc(Cl)c(C(F)(F)F)c4)cc3)cc2-c2ccncc2)ccc1Cl
[reply] 2200 nM

###

Documented log10 of TGI across a set of compounds
System: MCF7 breast
Assay: NCI tumour cell line growth inhibition, 48 h
// do not treat as linear: log10 of TGI, unit µM

compound=CC(C)/C(Cl)=N\OC(=O)Nc1ccc(S(N)(=O)=O)cc1 quantitative_result=1.44
compound=O=C1C=C(Cl)C(=O)C(c2ccc(Cl)cc2)=C1 quantitative_result=1.62
compound=Cc1ccc(C(=O)/C(=C/c2ccc([N+](=O)[O-])cc2)SCc2ccc(Cl)cc2)cc1 quantitative_result=0.49
compound=CC1(C)N=C(/C(Cl)=[N+](/[O-])C(=O)c2ccc(F)cc2)C(C)(C)N1O quantitative_result=1.64
compound="Nc1ccccc1SC(C[N+](=O)[O-])c1ccc2c(c1)OCO2 (stereo not given)" quantitative_result=1.09
compound=Cc1cc(I)cc(CN(C)CCCCN2CCCCC2)c1O quantitative_result=1.48
compound="CCCNC1=C2CC(C)CC(OC)[C@@H](O)[C@H](C)/C=C(\\C)C(OC(N)=O)C(OC)/C=C\\C=C(/C)C(=O)NC(=CC1=O)C2=O (stereo not given in full)" quantitative_result=1.45
compound=Oc1ccc(-c2nc(-c3cccnc3)c(-c3ccc(F)cc3)[nH]2)cc1 quantitative_result=1.51
compound="N#CC1=C(N)N(c2ccccc2)C(c2ccco2)C1(C#N)C#N (stereo not given)" quantitative_result=1.64
compound="O=C(CC1(O)C(=O)Nc2c(Cl)cc(Cl)cc21)c1ccc(Br)cc1Br (stereo not given)" quantitative_result=1.47

Lab note: next compound to report on.
[ask] Suppose we examine the compound CC[C@@]1(C[C@H]2C[C@@]3(C(=O)OC)c4[nH]c5ccccc5c4CCN3C2=O)COC2(CCCCC2)O1 ; what log10 of TGI value has been reported?
[reply] 1.96

The reported numbers originate from PubChem BioAssay (NCI).
